- Tested on: Female BALB/c mice
- Procedure Details: Performance evaluation of in vivo delivery of Fluc mRNA lipid nanoparticle (IVIS, body and organs)
- Measurement Context: Fluc mRNA LNP, 75 μL IV, 6 hours after injection, IVIS, spleen
Reported Property: Spleen (fluorescence expression intensity)

Compound: CCCCCCC(CCCCCC)OC(=O)CCCCCCCCC(CCCCCCCCC(=O)OC(CCCCCC)CCCCCC)OC(=O)N(CCCN(C)C)CC(=O)OCC
Assay Result: 8.01E+06
--
Compound: CCCCCCC(CCCCCC)OC(=O)CCCCCCCCC(CCCCCCCCC(=O)OC(CCCCCC)CCCCCC)OC(=O)N(CCCCN1CCCC1)CC(=O)OCC
Assay Result: 1.25E+07
--
Compound: CCC/C=C\COC(=O)CCCN(CCCN(C)C)C(=O)OC(CCCCCCCCC(=O)OC(CCCCCC)CCCCCC)CCCCCCCCC(=O)OC(CCCCCC)CCCCCC
Assay Result: 4.67E+06
--
Compound: CCCCCCC(CCCCCC)OC(=O)CCCCCCCCC(CCCCCCCCC(=O)OC(CCCCCC)CCCCCC)OC(=O)N(CCCCCC(=O)OCC)CCCCN1CCCC1
Assay Result: 4.11E+06
--
Compound: CCCCCCC(CCCCCC)OC(=O)CCCCCCCCC(CCCCCCCCC(=O)OC(CCCCCC)CCCCCC)OC(=O)N(CCCN(C)C)CC(=O)OC(CC)CCCCC (stereo not drawn)
Assay Result: 3.20E+06
--
Compound: CCCCCCC(CCCCCC)OC(=O)CCCCCCCCC(CCCCCCCCC(=O)OC(CCCCCC)CCCCCC)OC(=O)N(CCCN1CCCC1)CC(=O)OCC
Assay Result: 4.33E+05
